target: SHIP2-SH2 (wild type) (Homo sapiens); construct: The SHIP2 SH2 domain (hereafter represented by SHIP2-SH2); made in house; experiment: Fluorescence polarization binding of FAM-labeled phosphopeptides to wild-type SHIP2-SH2; settings: FP assay; N-terminally FAM-labeled phosphopeptide 100 nM; 20 mM Tris, 100 mM NaCl, 10 mM DTT, 0.02% NaN3, pH 7.5; each reaction repeated three times, averaged; ± standard error of curve fitting; SEM; read-out: dissociation constant (KD) for wild-type SHIP2-SH2
Sequence (O15357 21-117 limits assumed): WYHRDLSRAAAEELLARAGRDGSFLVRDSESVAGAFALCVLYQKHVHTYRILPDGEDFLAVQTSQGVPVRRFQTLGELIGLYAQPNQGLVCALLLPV
Square brackets hold non-standard residues; d marks the D form. Peptide text beside a SMILES is read from it. pY = N[C@@H](Cc1ccc(OP(=O)(O)O)cc1)C(=O)O
Catalogue of Kd values
Numeric answer only, unit µM assumed.

Test system SHIP2-SH2 (wild type) (Homo sapiens); read-out Kd; what value for CC[C@H](C)[C@H](NC(=O)[C@@H](NC(=O)[C@H](C)NC(=O)[C@H](Cc1ccc(OP(=O)(O)O)cc1)NC(=O)[C@@H](NC(=O)[C@@H]1CCCN1C(=O)[C@H](CCC(=O)O)NC(=O)[C@@H]1CCCN1C(=O)[C@@H](N)CO)[C@@H](C)CC)[C@@H](C)O)C(=O)N[C@@H](CC(=O)O)C(=O)N[C@@H](Cc1ccccc1)C(=O)N[C@@H](CC(=O)O)C(=O)N[C@@H](CCC(=O)O)C(=O)O [EPIYA-D] ?
3.16

Test system SHIP2-SH2 (wild type) (Homo sapiens); read-out Kd; what value for CC[C@H](C)[C@H](NC(=O)[C@@H]1CCCN1C(=O)[C@H](CCC(=O)O)NC(=O)[C@H](CCC(=O)O)NC(=O)[C@@H]1CCCN1)C(=O)N[C@@H](Cc1ccc(OP(=O)(O)O)cc1)C(=O)N[C@@H](C)C(=O)N[C@@H](CCC(N)=O)C(=O)N[C@H](C(=O)N[C@@H](C)C(=O)N[C@@H](CCCCN)C(=O)N[C@@H](CCCCN)C(=O)N[C@H](C(=O)O)C(C)C)C(C)C [EPIYA-B] (H-PEEPI[pY]AQVAKKV-OH) ?
18.6

Test system SHIP2-SH2 (wild type) (Homo sapiens); read-out Kd; what value for CC[C@H](C)[C@H](NC(=O)[C@@H]1CCCN1C(=O)[C@H](CCC(=O)O)NC(=O)[C@H](CC(N)=O)NC(=O)[C@@H](N)CCC(=O)O)C(=O)N[C@@H](Cc1ccc(OP(=O)(O)O)cc1)C(=O)N[C@@H](C)C(=O)N[C@@H](CCCCN)C(=O)N[C@H](C(=O)N[C@@H](CC(N)=O)C(=O)N[C@@H](CCCCN)C(=O)N[C@@H](CCCCN)C(=O)N[C@@H](CCCCN)C(=O)O)C(C)C [EPIYA-A] (H-ENEPI[pY]AKVNKKK-OH) ?
23.4

Test system SHIP2-SH2 (wild type) (Homo sapiens); read-out Kd; what value for CC[C@H](C)[C@H](NC(=O)[C@@H](NC(=O)[C@H](C)NC(=O)[C@H](Cc1ccc(OP(=O)(O)O)cc1)NC(=O)[C@@H](NC(=O)[C@@H]1CCCN1C(=O)[C@H](CCC(=O)O)NC(=O)[C@@H]1CCCN1C(=O)[C@@H](N)CO)[C@@H](C)CC)[C@@H](C)O)C(=O)N[C@@H](CC(=O)O)C(=O)N[C@@H](CC(=O)O)C(=O)N[C@@H](CC(C)C)C(=O)NCC(=O)O [EPIYA-C] (H-SPEPI[pY]ATIDDLG-OH) ?
2.96

Where these numbers come from: paper PMC9569640
